Tested on: DU-145 prostate
Assay: NCI tumour cell line growth inhibition, 48 h
Give Yes when the value for TGI is at least 30 µM. Give No when it is less.

| COMPOUND | ANSWER_LABEL |
| --- | --- |
| O=[N+]([O-])c1ccccc1S(=O)(=O)N1CCCc2cc(Cl)ccc21 | Yes |
| CC(C)(C)CC(C)(C)Cc1ccc(OCCOCC[N+](C)(C)Cc2ccccc2)cc1 | No |

Exam item: decide whether the reported TGI for `CSC(=S)N/N=C(\C)c1ccccn1` is at least 30 µM.
No

Exam item: decide whether the reported TGI for `Cc1ccc(/C=C(\C#N)n2nnc3cc(F)c(F)cc32)cc1` is at least 30 µM.
No

Exam item: decide whether the reported TGI for `COc1ccc(/C=C(/C(=O)N2CCNCC2)c2cc(OC)c(OC)c(OC)c2)cc1O` is at least 30 µM.
Yes

----------
Tested on: SK-OV-3 ovarian
Assay: NCI tumour cell line growth inhibition, 48 h
This listing pairs molecules with measured GI50.

| MOLECULE | QUANTITY_MEASURED | RESULT |
| --- | --- | --- |
| Cc1ccc(Cl)cc1Nc1nc(C(F)(F)F)ccc1C(=O)Oc1ccc(Cl)cc1 | GI50 | 12.2 µM |

What does the data say about its GI50? Entry: `Cn1c(=O)c(Cc2ccc(F)cc2F)cc2cnc(NC3CCOCC3)nc21`
> 25 µM

What does the data say about its GI50? Entry: COc1ccc(C2CC(c3cc(OC)c(OC)c(OC)c3)=NN2)cc1 (stereo not drawn)
12.4 µM

----------
System: HCT-15 colon
Experiment: NCI tumour cell line growth inhibition, 48 h
This listing pairs molecules with measured TGI.

These solved cases illustrate the format of a correct answer.
| MOLECULE | QUANTITY_MEASURED | RESULT |
| --- | --- | --- |
| CC(=O)C1=CC=C/C1=N\Nc1ccccc1 | TGI | 19.2 µM |
| CC(C)[C@]12O[C@H]1[C@@H]1O[C@]13[C@]1(O[C@H]1C[C@H]1c4c(C(=O)c5ccccc5)oc(OC(=O)c5ccccc5)c4CC[C@@]13C)[C@@H]2O | TGI | > 100 µM |
| COC(=O)c1nc2c(C)c(O)c(O)c([C@H](C)CCC=C(C)C)c2o1 | TGI | > 100 µM |

What does the data say about its TGI? Entry: Nc1nc(Cl)cc(NCC2(CO)CC(CCCCc3ccccc3)C2)n1 (stereo not given)
> 100 µM

What does the data say about its TGI? Entry: `Cc1ccc(Nc2ncnc3sc(SCc4ccccc4)nc23)cc1`
> 100 µM

----------
This listing pairs compounds with measured TGI.
Test system: SK-MEL-2 melanoma
Assay: NCI tumour cell line growth inhibition, 48 h

These solved cases illustrate the format of a correct answer.
| COMPOUND | ASSAY_TARGET | TGI |
| --- | --- | --- |
| COc1ccc(N(C(=O)OC(C)(C)C)[C@@H]2C(C)=C[C@H]([S@@](=O)c3ccc(C)cc3)[C@@H]3C(=O)N(C)C(=O)[C@@H]32)cc1 | SK-MEL-2 melanoma | 39.3 µM |
| Cc1ccc(S(=O)(=O)OC2CN3CCC2CC3)cc1 (stereo unspecified) | SK-MEL-2 melanoma | > 100 µM |
| COc1ccccc1NC(=O)C1=C(C)NC(C)=C(C(=O)Nc2ccccc2OC)C1c1ccc(C(C)C)cc1 | SK-MEL-2 melanoma | > 100 µM |
| S=C1c2cc(Cl)ccc2NC(=NC2CCCC2)C2CSCN12 (stereo unspecified) | SK-MEL-2 melanoma | > 100 µM |
| CNCCNc1nc2ccccc2c2c(=O)c3cccc(OC)c3sc12 | SK-MEL-2 melanoma | 3.62 µM |

What does the data say about its TGI? Entry: `NCCOc1ccccn1`
> 100 µM
